Where do these numbers come from? They come from paper PMC11012289.

tgt: IRAP (Homo sapiens)
Construct: The screen was performed with the soluble truncated IRAP enzyme; made in house
Sequence (Q9UIQ6 155-1025 limits assumed): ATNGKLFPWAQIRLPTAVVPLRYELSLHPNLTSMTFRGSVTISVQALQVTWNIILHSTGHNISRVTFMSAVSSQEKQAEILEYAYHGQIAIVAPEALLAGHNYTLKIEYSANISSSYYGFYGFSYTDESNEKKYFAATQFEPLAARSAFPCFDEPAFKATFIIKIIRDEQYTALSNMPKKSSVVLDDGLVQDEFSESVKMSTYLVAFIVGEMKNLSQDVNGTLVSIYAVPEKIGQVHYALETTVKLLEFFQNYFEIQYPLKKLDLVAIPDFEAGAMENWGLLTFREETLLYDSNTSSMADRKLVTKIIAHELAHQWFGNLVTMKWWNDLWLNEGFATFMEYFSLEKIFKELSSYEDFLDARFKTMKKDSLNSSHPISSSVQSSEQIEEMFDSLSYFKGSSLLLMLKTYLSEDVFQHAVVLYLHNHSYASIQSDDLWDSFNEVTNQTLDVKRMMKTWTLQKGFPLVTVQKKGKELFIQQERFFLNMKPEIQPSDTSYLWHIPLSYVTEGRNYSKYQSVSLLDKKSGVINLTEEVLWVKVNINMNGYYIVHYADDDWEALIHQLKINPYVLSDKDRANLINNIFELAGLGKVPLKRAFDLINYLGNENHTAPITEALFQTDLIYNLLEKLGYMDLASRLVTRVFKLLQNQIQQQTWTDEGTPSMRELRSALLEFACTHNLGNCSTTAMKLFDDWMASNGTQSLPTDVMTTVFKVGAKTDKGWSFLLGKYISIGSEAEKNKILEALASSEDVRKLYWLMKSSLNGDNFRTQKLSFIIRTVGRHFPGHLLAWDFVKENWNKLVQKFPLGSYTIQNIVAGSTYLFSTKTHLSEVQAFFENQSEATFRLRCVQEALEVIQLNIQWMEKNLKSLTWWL
protocol_summary: Primary fluorescence IRAP assay (L-Leucine-7-amido-4-methylcoumarin cleavage)
Format: biochemical
test_parameters: calculated from (pIC50Fluorescence − LogD)
Tag: rule met if measured LipE is not below 2, rule not met if it is.

Reference set, count: 5
compound: O=C(COCc1ccccc1)N1CCc2n[nH]c(-c3cccs3)c2CC1 [QHL14]
group: rule met
//
compound: c1ccn(CCCSc2nnc3ccc(N4CCCC4)nn23)c1 [QHL50]
group: rule met
//
compound: Cc1cc2nc(N)n(Cc3ccccc3)c2cc1C [QHL49]
group: rule not met
//
compound: CCOC(=O)c1c(Cl)cc(C)nc1N1CCCC(Cc2ccc(C(=O)N(C)C)cc2)C1 (stereo not shown) [QHL39]
group: rule not met
//
compound: O=C1CN(c2cc(=O)n3ccn(Cc4ccc(F)cc4Cl)c3n2)CCN1 [QHL40]
group: rule met

Entry NC(=O)CCc1ccc2c(c1)nc(N)n2Cc1ccc(-c2ccccc2)cc1 [QHL42] : is its LipE no less than 2? rule not met

Entry O=C(NO)C(CS(=O)(=O)N1CCC(c2ccc(F)cc2Cl)CC1)C1CCOCC1 (stereo not shown) [QHL8] : is its LipE no less than 2? rule met

Entry COc1ccc(S(=O)(=O)CCC(CCCc2ccccc2)C(=O)NO)cc1 (stereo not shown) [QHL4] : is its LipE no less than 2? rule met

Entry c1scc2c(N3CCCCCC3)nc(N3CCC3)nc12 [QHL44] : is its LipE no less than 2? rule not met

Entry CCCCc1nc2ccn(Cc3cccc(C#N)c3)c(=O)c2n1Cc1cccc(C#N)c1 [QHL41] : is its LipE no less than 2? rule not met
